system: SULT2A1; assay: SULT2A1 activity in primary porcine Leydig cells after treatment with nuclear receptor ligands ([3H]DHEA to DHEAS conversion); format: cell-based, pig; conditions: primary Leydig cells of mature Yorkshire boars, 24 hours; CITCO 1 μM, TCPOBOP 250 nM, phenobarbital 2 mM, phenytoin 50 μM, rifampicin 10 μM, PCN 10 μM, dexamethasone 0.1 μM, lithocolic acid 100 μM; vs control
readoutKind: SULT2A1 activity

* Clc1ccc(-c2nc3sccn3c2C=NOCc2ccc(Cl)c(Cl)c2)cc1 | did not affect
* Clc1cnc(Oc2ccc(Oc3ncc(Cl)cc3Cl)cc2)c(Cl)c1 | did not affect
